target: NMDA receptor glycine site (Rattus norvegicus); construct: The rat brain membranes used in the experiments were obtained from Analytical Biological Services Inc; tissue Analytical Biological Services Inc; host or cells: rat brain membranes (cerebral cortex and hippocampus, male Sprague Dawley rats); experiment: Test A: Inhibition of binding of [3H]-MDL105,519 to brain membranes
value.kind: Ki (nM)
Report the value in nM with no unit label.

# input Look up Ki of O=C(NCc1ccco1)c1ccc(Cn2nc(O)c3[nH]c4cc(Cl)ccc4c(=O)c3c2=O)cc1 [Ex. 3] and report it.
# output 153

###

Parameter pKi: see the listing below.
Target: NMDA receptor glycine site (Rattus norvegicus)
Construct: The rat brain membranes used in the experiments were obtained from Analytical Biological Services Inc; tissue Analytical Biological Services Inc; host or cells: rat brain membranes (cerebral cortex and hippocampus, male Sprague Dawley rats)
Experiment: Test A: Inhibition of binding of [3H]-MDL105,519 to brain membranes
Conditions: inhibition of 1.2 nM [3H]MDL105,519 binding, brain membranes (rat or human not given)
Method: Test A: Inhibition of Binding of [^3H]-MDL105,519: Binding of compounds to the NMDA receptor glycine site may be assessed by measuring the ability of test compounds to inhibit the binding of tritiated MDL105,519 to brain membranes bearing the receptor. […] [^3H]MDL105,519 (72 Ci/mmol) was purchased from Amersham. […] Non specific binding was determined by using 100 μM of unlabeled MDL105,519. […]
Friendly reminder that pKi comes from taking -log10 of the concentration in mol/L.

> print(dat)
                                smiles.data                              assay.target  reading
1  O=C(Nc1ccccc1)Nc1cccc(Cn2nc(O)c3[nH]c4cc(Cl)ccc4c(=O)c3c2=O)c1  NMDA receptor glycine site (Rattus norvegicus)     7.10
2  CC(C)OC(=O)c1ccc(Cn2nc(O)c3[nH]c4cc(Cl)ccc4c(=O)c3c2=O)cc1  NMDA receptor glycine site (Rattus norvegicus)     7.04
3  O=C(c1ccc(Cn2nc(O)c3[nH]c4cc(Cl)ccc4c(=O)c3c2=O)cc1)N1CCOCC1  NMDA receptor glycine site (Rattus norvegicus)     7.06

Switching to the query record.
# input Look up pKi of `CC(=O)Nc1ccc(Cn2nc(O)c3[nH]c4cc(Cl)ccc4c(=O)c3c2=O)cc1` and report it.
# output 7.01

These measurements were taken from patent US20030181449A1.
